Catalogue of Herbicidal effects Am values
- Tested on: slender amaranth (Am)
- experiment notes: Test Example 7: crop plant selectivity by upland field soil treatment (corn), herbicidal effects
- Assay type: in vivo
- Set-up: scale not given here
- assay conditions: dose 6.3 g ai/10a, 21st day after application
The reply should be a number, written without any unit.

smiles data: Cn1c(C(F)(F)F)ccc(-c2cc(OCC3CC3)c(Cl)cc2F)c1=O
result number: 5

smiles data: CON=C(C)c1cc(-c2ccc(C(F)(F)F)n(C)c2=O)c(F)cc1Cl
result number: 5

In the following, a different molecule is considered.
Ask: // query Herbicidal effects Am value for entry `Cn1c(C(F)(F)F)ccc(-c2c(F)cc(Cl)c3oc(CO)cc23)c1=O`
Reply: 5

###

- System: soybean (Gl)
- experiment notes: Test Example 6: crop plant selectivity by upland field soil treatment (soybean), phytotoxicity
- Assay type: in vivo
- Parameters: scale not given here
- assay conditions: dose 1.6 g ai/10a, 21st day after application
Catalogue of Phytotoxicity Gl values
The reply should be a number, written without any unit.

Below, each entry is followed by its recorded Phytotoxicity Gl result.
compound: Cn1cc(-c2cc(Oc3ccccc3)c(Cl)cc2F)c(=O)cc1C(F)(F)F [Compound No. 6-19]
target of assay: soybean (Gl)
result number: 0
//
compound: C#CC(O)c1cc(-c2ccc(C(F)(F)F)n(C)c2=O)c(F)cc1Cl (centres unmarked) [Compound 1-202]
target of assay: soybean (Gl)
result number: 2
//
compound: C=CCN1C(=O)COc2cc(F)c(-c3ccc(C(F)(F)F)n(C)c3=O)cc21 [Compound 2-7]
target of assay: soybean (Gl)
result number: 0
//
compound: Cn1c(C(F)(F)F)ccc(-c2cc(OCC(F)(F)F)c(Cl)cc2F)c1=O [1-155]
target of assay: soybean (Gl)
result number: 0

Ask: // query Phytotoxicity Gl value for entry Cn1c(C(F)(F)F)ccc(-c2cc(Cl)c(Cl)cc2F)c1=O [1-136]
Reply: 0

###

- Test system: soybean (Gl)
- experiment notes: Test Example 6: crop plant selectivity by upland field soil treatment (soybean), phytotoxicity
- Type: in vivo
- Parameters: scale not given here
- assay conditions: dose 6.3 g ai/10a, 21st day after application
property measured: Phytotoxicity Gl

Below, each entry is followed by its recorded Phytotoxicity Gl result.
compound: C#CC(C)Oc1cc(Cl)cc(F)c1-c1ccc(C(F)(F)F)n(C)c1=O (centres unmarked)
result: 2
--
compound: COCc1cc2c(-c3ccc(C(F)(F)F)n(C)c3=O)c(F)cc(Cl)c2o1
result: 2
--
compound: C#CCN1C(=O)COc2cc(F)c(-c3cn(C)c(C(F)(F)F)cc3=O)cc21
result: 1
--
compound: C=CCN1C(=O)COc2cc(Cl)c(-c3ccc(C(F)(F)F)n(C)c3=O)cc21
result: 1
--
compound: C#CCSc1cc(-c2ccc(C(F)(F)F)n(C)c2=O)c(F)cc1Cl
result: 1
--
compound: Cn1c(C(F)(F)F)ccc(-c2c(F)cc(Cl)c3oc(CBr)cc23)c1=O
result: 1
--
compound: CCCc1cc2c(-c3ccc(C(F)(F)F)n(C)c3=O)c(F)cc(Cl)c2o1
result: 1
--
compound: COCCOc1cc(-c2ccc(C(F)(F)F)n(C)c2=O)c(F)cc1Cl
result: 2

Ask: // query Phytotoxicity Gl value for entry `COc1cc(Cl)cc(F)c1-c1ccc(C(F)(F)F)n(C)c1=O`
Reply: 1

Ask: // query Phytotoxicity Gl value for entry `CCOCOc1cc(-c2ccc(C(F)(F)F)n(C)c2=O)c(F)cc1Cl`
Reply: 1

Ask: // query Phytotoxicity Gl value for entry `CCCC(=O)c1cc(-c2ccc(C(F)(F)F)n(C)c2=O)c(F)cc1Cl`
Reply: 1
